B1: Osa-1-4 twister ribozyme (parent)
chain: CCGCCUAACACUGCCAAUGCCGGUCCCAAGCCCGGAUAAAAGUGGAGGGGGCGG

Variants of: B1
Test: self-cleavage, relative activity (ratio to wild type); higher = more cleavage; co-transcriptional
Please note: Yes applies when self-cleavage is 0.1 or greater, and No applies otherwise.

Examples with answers:
Dear colleague, could you confirm whether G51U U43A has self-cleavage at or above 0.1?
Yes

Dear colleague, could you confirm whether A39U C14U has self-cleavage at or above 0.1?
Yes

Dear colleague, could you confirm whether C33U U43A has self-cleavage at or above 0.1?
Yes

Dear colleague, could you confirm whether C20U U37A has self-cleavage at or above 0.1?
Yes

Dear colleague, could you confirm whether C14A C21A has self-cleavage at or above 0.1?
No

Dear colleague, could you confirm whether A8C G54U has self-cleavage at or above 0.1?
Yes

Dear colleague, could you confirm whether A41G C9U has self-cleavage at or above 0.1?
Yes

Dear colleague, could you confirm whether G34C G53A has self-cleavage at or above 0.1?
No

Continuing:
Dear colleague, could you confirm whether C14G U18A has self-cleavage at or above 0.1?
Yes

Dear colleague, could you confirm whether A46U C9A has self-cleavage at or above 0.1?
No
